Cited source for all entries: ChEMBL document CHEMBL6134895

# MEASUREMENT NOTES: Stability in mouse plasma assessed as compound remaining at 2 uM measured after 60 mins by LC-MS/MS analysis
# Type: ADME, cell-free
# ASSAY SETUP: read-out: Stability
QUANTITY NAME: remaining at 1 h, 2 µM (%)
Respond with the bare value in %.

These recorded examples may help you get a feel for the data.
structure_smiles=Cc1ccc(Cn2c(CSc3c(C)cc(C)cc3C)c(C(=O)N3CCC(N4CCOCC4)CC3)c3cc(O)c(Br)cc32)cc1 unit_label=% test_result=44
structure_smiles=Cc1ccc(Cn2c(CSc3c(C)cc(C)cc3C)c(C(=O)NC3CCN(C(C)C)CC3)c3cc(O)c(Br)cc32)cc1 unit_label=% test_result=74.8
structure_smiles=Cc1ccc(Cn2c(CSc3c(C)cc(C)cc3C)c(C(=O)NC(C)(C)C)c3cc(O)c(Br)cc32)cc1 unit_label=% test_result=96.9

Just so you know, measured remaining at 1 h, 2 µM for `CC(C)[N+](C)(CCOC(=O)C1c2ccccc2Oc2ccccc21)C(C)C` came out at 17.4

Just so you know, measured remaining at 1 h, 2 µM for `CCOC(=O)c1c(CSc2c(C)cc(C)cc2C)n(Cc2ccc(C)cc2)c2cc(Br)c(O)cc12` came out at 111

Just so you know, measured remaining at 1 h, 2 µM for `CN(C)CCCCNC(=O)c1c(CSc2ccc(F)cc2)n(C)c2cc(Br)c(O)cc12` came out at 41.6

Just so you know, measured remaining at 1 h, 2 µM for `Cc1ccc(Cn2c(CSc3c(C)cc(C)cc3C)c(C(=O)Nc3cnn(C)c3)c3cc(O)c(Br)cc32)cc1` came out at 42.5

---

# MEASUREMENT NOTES: Microsomal stability in mouse liver microsomes assessed as intrinsic clearance measured per mg protein at 100 uM preincubated for 15 mins followed by NADPH addition measured up to 60 mins by LC-MS/MS analysis
# Type: ADME, Microsome
# ASSAY SETUP: time < 75 min, read-out: CLH
microsomal CLint at 100 µM strictly less than 80 µL/min/mg = Condition met. Otherwise Condition not met.

structure_smiles=CN(C)CCCCNC(=O)c1c(CSc2ccc(F)cc2)n(C)c2cc(Br)c(O)cc12 cat="Condition met"
structure_smiles=Cc1ccc(Cn2c(CSc3c(C)cc(C)cc3C)c(C(=O)N3CCC(N4CCOCC4)CC3)c3cc(O)c(Br)cc32)cc1 cat="Condition met"
structure_smiles=Cc1ccc(Cn2c(CSc3c(C)cc(C)cc3C)c(C(=O)NC3CCN(C(C)C)CC3)c3cc(O)c(Br)cc32)cc1 cat="Condition met"
structure_smiles=Cc1ccc(Cn2c(CSc3c(C)cc(C)cc3C)c(C(=O)Nc3cnn(C)c3)c3cc(O)c(Br)cc32)cc1 cat="Condition met"
structure_smiles=Cc1ccc(Cn2c(CSc3c(C)cc(C)cc3C)c(C(=O)NC(C)(C)C)c3cc(O)c(Br)cc32)cc1 cat="Condition not met"

Alright, here's another molecule for you.
Task: Please let me know if `CCOC(=O)c1c(CSc2ccc(C)cc2C)n(Cc2ccc(C)cc2)c2cc(Br)c(O)c(CN(C)C)c12` shows microsomal CLint at 100 µM below 80 µL/min/mg.
Output: Condition not met

---

Entries and their remaining at 1 h, 100 µM
# MEASUREMENT NOTES: Microsomal stability in mouse liver microsomes assessed as compound remaining at 100 uM preincubated for 15 mins followed by NADPH addition measured after 60 mins by LC-MS/MS analysis
# Format: ADME, Microsome
# ASSAY SETUP: time 75 min, read-out: Stability
Respond with the bare value in %.

structure_smiles=Cc1ccc(Cn2c(CSc3c(C)cc(C)cc3C)c(C(=O)NC(C)(C)C)c3cc(O)c(Br)cc32)cc1 quantity_name="remaining at 1 h, 100 µM" test_result=0.73
structure_smiles=CCOC(=O)c1c(CSc2ccc(C)cc2C)n(Cc2cccc3ccccc23)c2cc(Br)c(O)cc12 quantity_name="remaining at 1 h, 100 µM" test_result=75.5
structure_smiles=CCOC(=O)c1c(CSc2ccc(C)cc2C)n(Cc2ccc(C)cc2)c2cc(Br)c(O)c(CN(C)C)c12 quantity_name="remaining at 1 h, 100 µM" test_result=0.314
structure_smiles=CN(C)CCCCNC(=O)c1c(CSc2ccc(F)cc2)n(C)c2cc(Br)c(O)cc12 quantity_name="remaining at 1 h, 100 µM" test_result=21
structure_smiles=Cc1ccc(Cn2c(CSc3c(C)cc(C)cc3C)c(C(=O)NC3CCN(C(C)C)CC3)c3cc(O)c(Br)cc32)cc1 quantity_name="remaining at 1 h, 100 µM" test_result=80.1
structure_smiles=CCOC(=O)c1c(CSc2c(C)cc(C)cc2C)n(Cc2ccc(C)cc2)c2cc(Br)c(O)cc12 quantity_name="remaining at 1 h, 100 µM" test_result=1.23
structure_smiles=Cc1ccc(Cn2c(CSc3c(C)cc(C)cc3C)c(C(=O)Nc3cnn(C)c3)c3cc(O)c(Br)cc32)cc1 quantity_name="remaining at 1 h, 100 µM" test_result=18

--- query ---
Just so you know, measured remaining at 1 h, 100 µM for `Cc1ccc(Cn2c(CSc3c(C)cc(C)cc3C)c(C(=O)N3CCC(N4CCOCC4)CC3)c3cc(O)c(Br)cc32)cc1` came out at 14.7
